The values you see were collected from PubChem BioAssay (EPA / NIEHS).

experiment: BSK_hDFCGF_SRB: Viability Assessment in the BioMAP Diversity Plus: hDFCGF Assay (AID 2283061); details: primary human foreskin fibroblasts;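 note: cells exposed to compound for 24 h before the read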
Active and inactive are the calls of the source. Rule for the calls: active = hit-call score of the fitted dose curve at least 0.9, where 1 is the maximum; inactive = score below 0.9.
Respond using exactly one of the listed classes: TRUE = active, FALSE = inactive

O=S(=O)(c1ccccc1)c1ccccc1 : FALSE
O=C(CCl)c1ccccc1 : TRUE
O=C(O)CCCc1ccc(N(CCCl)CCCl)cc1 : FALSE

Answer briefly: the call reported for O=P1(NCCCl)OCCCN1CCCl (centres undefined) in this assay.
FALSE

Answer briefly: the call reported for O=[N+]([O-])O in this assay.
FALSE

* * *

read-out: Monokine induced gamma interferon (MIG), CXCL9 (gene 4283); experiment: BSK_BE3C_MIG: BioMAP Diversity Plus: BE3C Assay for Monokine induced gamma interferon (MIG) Biomarker Activity (AID 2283035); conditions: primary human bronchial epithelial cells; actives raise or lower the signal
The source made the active and inactive calls. The calls were made as follows: active = hit-call score of the fitted dose curve at least 0.9, where 1 is the maximum; inactive = score below 0.9.
Respond using exactly one of the listed classes: active, inactive

Example cases with answers are listed next.
O=C1C=CC(=O)C=C1 : inactive
CC(C)(c1cc(Cl)c(O)c(Cl)c1)c1cc(Cl)c(O)c(Cl)c1 : active
CCc1cc(C)cc(CC)c1-c1c(OC(=O)C(C)(C)C)n2n(c1=O)CCOCC2 : inactive
O=c1c2ccccc2c(=O)c2c1cc(Cl)c1[nH]c3c([nH]c12)c(Cl)cc1c(=O)c2ccccc2c(=O)c13 : inactive
COC(C)(C)CCC[C@H](C)C/C=C/C(C)=C/C(=O)OC(C)C : inactive
N#CCCCCC#N : inactive
O=C(CCl)c1ccccc1 : active
CCCOC(=O)c1ccccc1C(=O)OCCC : inactive

Answer briefly: the call reported for Cc1ccc(OP(=O)(Oc2ccc(C)cc2)Oc2ccc(C)cc2)cc1 (tested in a mixture with another compound) in this assay.
inactive

Answer briefly: the call reported for COc1ccc(CO)cc1 in this assay.
inactive

Answer briefly: the call reported for O=[N+]([O-])C=Cc1ccccc1 in this assay.
active

Answer briefly: the call reported for Nc1ccc(-c2ccc(N)c(N)c2)cc1N in this assay.
inactive

* * *

assay: ATG_DR4_LXR_CIS: Attagene CIS-FACTORIAL HepG2 Assay for human Liver X Receptor (LXR), DR4 submotif (AID 2282929); conditions: HepG2 Attagene DR4 cis-reporter, mRNA transcription; actives raise or lower the signal
Activity calls are given as the source filed them. The calls were made as follows: active = hit-call score of the fitted dose curve at least 0.9, where 1 is the maximum; inactive = score below 0.9.
Respond using exactly one of the listed classes: T for active, F for inactive

O=[N+]([O-])c1cc([N+](=O)[O-])c2ccccc2c1 : F
C[C@]12CC[C@H]3[C@@H](CC[C@@]45O[C@@H]4C(O)=C(C#N)C[C@]35C)[C@@H]1CC[C@@H]2O : F
CSc1nc(N=[N+]=[N-])nc(NC(C)C)n1 : F
CCCCCc1cc(O)cc(O)c1 : T
O=P1(NCCCl)OCCCN1CCCl (stereo not drawn) : F
O=S(=O)(O)OOS(=O)(=O)O : F
CC(C)(Cl)Cl : F
c1ccc2c(c1)CCCC2 : F

Answer briefly: the call reported for C=C(Cl)Cl in this assay.
F

Answer briefly: the call reported for COCC(=O)N(c1c(C)cccc1C)N1CCOC1=O in this assay.
F

Answer briefly: the call reported for C[N+](C)(C)CC(=O)O in this assay.
F

Answer briefly: the call reported for C=COCCCl in this assay.
F

Answer briefly: the call reported for CC1(C)CC(=O)CC(C)(C)N1[O] in this assay.
F

Answer briefly: the call reported for Nc1ccc(Cl)c(Cl)c1 in this assay.
T

Answer briefly: the call reported for COc1cc(OC)nc(Oc2cccc(Oc3nc(OC)cc(OC)n3)c2C(=O)O)n1 in this assay.
F

Answer briefly: the call reported for O=[N+]([O-])c1ccc(Cl)cc1 in this assay.
F

Answer briefly: the call reported for CC(=O)C=Cc1ccccc1 in this assay.
F

Answer briefly: the call reported for Nc1cc(Cl)cc(Cl)c1 in this assay.
F

Answer briefly: the call reported for C=C(Cl)CCl in this assay.
F

Answer briefly: the call reported for CC(C)(C)C(O)C(Oc1ccc(-c2ccccc2)cc1)n1cncn1 (stereo not drawn) in this assay.
T

Answer briefly: the call reported for CCNCC in this assay.
F

Answer briefly: the call reported for C[N+](C)(C)CC(=O)[O-] in this assay.
F

Answer briefly: the call reported for CC=Cc1ccc2c(c1)OCO2 in this assay.
F
